Source: the supplement of paper PMC7125110

B1: glmS ribozyme (parent)
chain: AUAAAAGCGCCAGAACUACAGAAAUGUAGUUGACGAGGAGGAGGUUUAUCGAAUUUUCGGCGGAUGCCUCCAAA

variants of: B1; experiment: self-cleavage kobs at 40 uM GlcN6P; higher = faster cleavage; RNA array; details: with glucosamine-6-phosphate
Variants at the floor of the assay were thinned out.
metricName: self-cleavage kobs at 40 uM GlcN6P

Answered cases to consult:
* G7U G63A | < 1e-05 s⁻¹
* C34U G37C A53G | < 1e-05 s⁻¹
* A14C G62C G63A C68G | < 1e-05 s⁻¹
* A6U G63U | < 1e-05 s⁻¹
* G29A C34A | < 1e-05 s⁻¹

Query block: Supply reported self-cleavage kobs at 40 uM GlcN6P belonging to this variant: U57G G66A
Result block: < 1e-05 s⁻¹

Query block: Supply reported self-cleavage kobs at 40 uM GlcN6P belonging to this variant: U30G G60A
Result block: < 1e-05 s⁻¹

Query block: Supply reported self-cleavage kobs at 40 uM GlcN6P belonging to this variant: G60A G62U
Result block: < 1e-05 s⁻¹

Query block: Supply reported self-cleavage kobs at 40 uM GlcN6P belonging to this variant: A36C A39G G66A
Result block: < 1e-05 s⁻¹

Query block: Supply reported self-cleavage kobs at 40 uM GlcN6P belonging to this variant: G29U C34A
Result block: < 1e-05 s⁻¹

Query block: Supply reported self-cleavage kobs at 40 uM GlcN6P belonging to this variant: U56C C61A
Result block: < 1e-05 s⁻¹

Query block: Supply reported self-cleavage kobs at 40 uM GlcN6P belonging to this variant: G41U U45C U54G C67U C71G
Result block: < 1e-05 s⁻¹

Query block: Supply reported self-cleavage kobs at 40 uM GlcN6P belonging to this variant: A36G U56G
Result block: < 1e-05 s⁻¹

Query block: Supply reported self-cleavage kobs at 40 uM GlcN6P belonging to this variant: G41U G62A G63U
Result block: < 1e-05 s⁻¹

Query block: Supply reported self-cleavage kobs at 40 uM GlcN6P belonging to this variant: U56C
Result block: 7.94e-05 s⁻¹

Query block: Supply reported self-cleavage kobs at 40 uM GlcN6P belonging to this variant: A12U U57C
Result block: 6.27e-05 s⁻¹

Query block: Supply reported self-cleavage kobs at 40 uM GlcN6P belonging to this variant: U65A
Result block: 0.00012 s⁻¹
